# target_or_test_system: CYP3A4 (Homo sapiens)
# Sequence (P08684 whole entry): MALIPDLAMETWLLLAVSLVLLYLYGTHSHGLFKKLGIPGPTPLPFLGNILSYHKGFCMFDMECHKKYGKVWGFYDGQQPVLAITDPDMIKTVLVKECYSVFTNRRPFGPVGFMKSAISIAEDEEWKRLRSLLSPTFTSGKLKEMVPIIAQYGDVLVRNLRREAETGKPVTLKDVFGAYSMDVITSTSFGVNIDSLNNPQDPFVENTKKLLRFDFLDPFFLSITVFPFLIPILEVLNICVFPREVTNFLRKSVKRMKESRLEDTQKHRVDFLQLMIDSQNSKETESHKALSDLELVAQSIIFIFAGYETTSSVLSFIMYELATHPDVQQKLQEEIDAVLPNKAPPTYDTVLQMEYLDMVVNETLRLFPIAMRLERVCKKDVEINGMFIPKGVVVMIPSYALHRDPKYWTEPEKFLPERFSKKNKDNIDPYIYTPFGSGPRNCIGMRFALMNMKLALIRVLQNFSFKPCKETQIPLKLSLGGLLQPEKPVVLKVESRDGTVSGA
# assay_method_text: Metabolic stability of in DMSO solution assessed as human CYP3A4-mediated drug degdaradtion by measuring compound remaining at 1 uM after 1 hr in presence of human CYP3A4 and NADPH
# Assay type: ADME
# stated_conditions: human CYP3A4 enzyme, read-out: Stability
For each entry below, report its remaining at 1 h, 1 µM value.
Numbers only, in %.

Use these answered entries as a reference point.
INSERT INTO results (query_smiles, measured) VALUES
  ('CC(=O)N1CCC(c2nc(N3CCOCC3)ncc2-c2cc(C)no2)CC1', 75),
  ('CC(=O)N1CCC(c2nc(NCc3ccccn3)ncc2-c2cc(C)no2)CC1', 27),
  ('CC(=O)N1CCC(c2nc(N3CCN(C)CC3)ncc2-c2cc(C)no2)CC1', 100),
  ('Cc1cc(-c2cnc(NC(C)C)nc2-c2ccc(C)s2)on1', 20);

Now let's try a different one.
Fill in: CYP3A4 (Homo sapiens) remaining at 1 h, 1 µM for Cc1cc(-c2cnc(N3CCN(C)CC3)nc2-c2ccc(C)s2)on1 = 51
